tested on: HepG2 cells; assay: Anti-proliferative activity assay (MTT); assay type: cell-based, human; conditions: 72 h
Quantity: IC50 (µM)

1. CCC[C@H]1CC[C@H](c2ccc(NC(=S)NC[C@@H]3[C@@H](O)[C@@H](O)[C@H]4[C@H](O)CCCN43)cc2)CC1
2. CCC[C@H]1CC[C@H](c2ccc(C(=O)NC[C@@H]3[C@@H](O)[C@@H](O)[C@H]4[C@H](O)CCCN43)cc2)CC1
3. CCCCCC[C@H]1CC[C@H](c2ccc(NC(=S)NC[C@@H]3[C@@H](O)[C@@H](O)[C@H]4[C@H](O)CCCN43)cc2)CC1
Task item: Task field, ranking: reported IC50, descending order. Labels, requested order.
Reply: 2, 1, 3
